For each record, write down the corresponding EC50.
Target: sGC α1/β1 heterodimer (Homo sapiens, UniProt Q02108+Q02153)
Sequence (Q02108 1-690): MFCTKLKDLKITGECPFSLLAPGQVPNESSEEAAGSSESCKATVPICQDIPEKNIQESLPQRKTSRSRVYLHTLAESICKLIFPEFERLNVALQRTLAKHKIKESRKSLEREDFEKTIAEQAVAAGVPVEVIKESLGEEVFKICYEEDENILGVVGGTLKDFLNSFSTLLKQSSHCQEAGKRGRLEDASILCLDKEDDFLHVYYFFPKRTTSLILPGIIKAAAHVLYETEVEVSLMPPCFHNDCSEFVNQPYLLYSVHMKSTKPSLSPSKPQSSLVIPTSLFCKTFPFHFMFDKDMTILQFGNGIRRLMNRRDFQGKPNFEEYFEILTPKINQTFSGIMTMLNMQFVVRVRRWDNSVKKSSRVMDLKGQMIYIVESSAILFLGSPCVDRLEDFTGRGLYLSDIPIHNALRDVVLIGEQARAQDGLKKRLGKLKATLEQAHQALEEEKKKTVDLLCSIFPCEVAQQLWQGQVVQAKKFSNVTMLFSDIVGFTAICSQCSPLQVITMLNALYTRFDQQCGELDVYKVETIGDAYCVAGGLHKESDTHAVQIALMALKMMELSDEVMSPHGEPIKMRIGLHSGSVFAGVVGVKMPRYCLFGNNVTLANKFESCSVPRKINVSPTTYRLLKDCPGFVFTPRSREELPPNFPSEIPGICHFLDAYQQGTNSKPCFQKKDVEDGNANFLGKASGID
Sequence (Q02153 1-619): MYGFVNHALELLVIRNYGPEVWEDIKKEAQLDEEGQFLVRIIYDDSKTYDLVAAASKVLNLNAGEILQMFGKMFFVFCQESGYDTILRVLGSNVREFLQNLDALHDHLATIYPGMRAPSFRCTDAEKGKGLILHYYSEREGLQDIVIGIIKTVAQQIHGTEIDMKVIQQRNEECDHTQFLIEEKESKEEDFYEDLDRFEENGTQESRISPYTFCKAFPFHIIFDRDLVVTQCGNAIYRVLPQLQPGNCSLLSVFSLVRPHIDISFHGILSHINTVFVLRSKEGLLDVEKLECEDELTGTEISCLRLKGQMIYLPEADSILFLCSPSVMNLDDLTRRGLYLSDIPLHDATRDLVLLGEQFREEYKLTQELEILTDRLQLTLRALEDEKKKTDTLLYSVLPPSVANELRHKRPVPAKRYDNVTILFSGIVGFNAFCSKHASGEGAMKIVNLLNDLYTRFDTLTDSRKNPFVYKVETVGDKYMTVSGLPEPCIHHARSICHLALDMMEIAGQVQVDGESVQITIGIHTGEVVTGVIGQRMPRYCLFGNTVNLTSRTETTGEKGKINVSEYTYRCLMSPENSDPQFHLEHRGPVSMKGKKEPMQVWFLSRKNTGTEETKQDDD
Test: Cell-based sGC functional assay (CASA assay): cGMP generation in CHO-K1/sGC cells, HTRF detection
Conditions: inflection point (IP) of cGMP generation in CHO-K1/sGC cells, 4P fit; activity expressed as percentage of Compound A

Problem: State its EC50 for this compound: CC1(c2ccccc2)C(=O)Nc2nc(-c3cn4ccnc4c(CCC(F)(F)C(F)(F)F)n3)nc(N)c21 (stereo not shown) [Example 232B]
Solution: 17 nM

Problem: Supply EC50 value. Item: Nc1nc(-c2cn3ccnc3c(CCCC(F)(F)F)n2)nc2c1C(c1ncc(Cl)cn1)(C1CC1)C(=O)N2 (stereo not shown) [Example 373A]
Solution: 26 nM

Problem: Given the compound CCCCc1nc(-c2nc(N)c3c(n2)NC(=O)C3(c2ccc(OC(F)(F)F)cc2)C2CC2)cn2ccnc12 (stereo not shown) [Example 346A] , write its reported EC50.
Solution: 65 nM

Problem: Note down EC50 recorded for COc1cn2cc(-c3nc(N)c4c(n3)NC(=O)C4(C)c3ccc(F)cc3)nc(CCCC(F)(F)F)c2n1 (stereo not shown) [Example 176A]
Solution: 79 nM

Problem: For CCCc1nc(-c2nc(N)c3c(n2)NC(=O)C3(C)c2ccc(Cl)cn2)cn2ccnc12 (stereo not shown) [Example 129A] , write its EC50.
Solution: 107 nM

Problem: Tell me EC50 reported for Nc1nc(-c2cn3ccnc3c(CCC(F)(F)C(F)(F)F)n2)nc2c1C(c1nnc(C3CC3)o1)(C1CC1)C(=O)N2 (stereo not shown) [Example 56B]
Solution: 772 nM

Problem: Check the records and state EC50 for Nc1nc(-c2cn3ccnc3c(CCCC(F)(F)F)n2)nc2c1C(c1cccc(C(F)(F)F)n1)(C1CC1)C(=O)N2 (single isomer, unassigned) [Example 368B]
Solution: 148 nM

Problem: Quickly give me recorded EC50 for CCCCc1nc(-c2nc(N)c3c(n2)NC(=O)C3(C)c2ccc(F)cn2)cn2cc(C)nc12 (stereo not shown) [Example 164B]
Solution: 81 nM

Problem: For the compound CC1(c2ccc(Cl)cc2)C(=O)Nc2nc(-c3cn4ccnc4c(CCCC(F)(F)F)n3)nc(N)c21 (stereo not shown) [Example 206A] , give its measured EC50 value.
Solution: 21 nM

Problem: Answer with the recorded EC50 for the compound listed here: CC1(c2ccc(Cl)c(Cl)c2)C(=O)Nc2nc(-c3cn4ccnc4cn3)nc(N)c21 (stereo not shown) [Example 138A]
Solution: 369 nM

Problem: State, in one line, measured EC50 of COc1cn2cc(-c3nc(N)c4c(n3)NC(=O)C4(C)c3ccc(F)cc3)nc(CCC(F)(F)C(F)(F)F)c2n1 (stereo not shown) [Example 174A]
Solution: 107 nM

Problem: Recall and state the measured EC50 for Cc1nnc(C2(C)C(=O)Nc3nc(-c4cn5ccnc5c(Cc5ccc(F)cc5)n4)nc(N)c32)s1 (stereo not shown) [Example 33A] .
Solution: 129 nM

Problem: Give a short answer stating reported EC50 for CC1(C)C(=O)Nc2nc(-c3cn4c(Cl)cnc4c(CCC(F)(F)C(F)(F)F)n3)nc(N)c21 [Example 257] .
Solution: 614 nM

Problem: Please supply the value of reported EC50 for the item CC1(c2ccccc2)C(=O)Nc2nc(-c3cn4ccnc4c(Cc4cccc(F)c4)n3)nc(N)c21 (stereo not shown) [Example 101B]
Solution: 34 nM

Problem: Look up EC50 of CCCCc1nc(-c2nc(N)c3c(n2)NC(=O)C3(C)c2ccc(Cl)cc2)cn2ccnc12 (stereo not shown) [Example 10A] and report it.
Solution: 56 nM

Problem: Provide EC50 value for the following compound: Cc1nc2c(CCC(F)(F)C(F)(F)F)nc(-c3nc(N)c4c(n3)NC(=O)C4(C)c3ccc(F)cc3)cn2c1Br (stereo not shown) [Example 266A]
Solution: 141 nM

Problem: Indicate its recorded EC50; the compound in question is Cc1nnc(C2(C)C(=O)Nc3nc(-c4cn5ccnc5c(CCC(F)(F)C(F)(F)F)n4)nc(N)c32)o1 (stereo not shown) [Example 57A]
Solution: 920 nM

Problem: Please report EC50 for the following compound: CC1(c2ccc(F)cc2)C(=O)Nc2nc(-c3cn4cc(C(F)(F)F)nc4c(Cc4cccc(F)c4)n3)nc(N)c21 (stereo not shown) [Example 149A]
Solution: 22 nM

Problem: State, in one line, measured EC50 of CCCc1nc(-c2nc(N)c3c(n2)NC(=O)C3(C)c2ccc(Cl)cc2)cn2ccnc12 (single isomer, unassigned) [Example 2A]
Solution: 105 nM

Problem: Supply measured EC50 of CC1(c2cc(F)cc(F)c2)C(=O)Nc2nc(-c3cn4ccnc4cn3)nc(N)c21 (stereo not shown) [Example 142B] in your reply.
Solution: 667 nM

Problem: Supply measured EC50 of Cc1ccc(C2(C)C(=O)Nc3nc(-c4cn5ccnc5c(CCC(F)(F)C(F)(F)F)n4)nc(N)c32)cn1 (stereo not shown) [Example 221A] in your reply.
Solution: 496 nM

Problem: Kindly indicate its recorded EC50. Item: COc1ccc(C2(C3CC3)C(=O)Nc3nc(-c4cn5ccnc5c(CCC(F)(F)C(F)(F)F)n4)nc(N)c32)nc1 (single isomer, unassigned) [Example 337A]
Solution: 486 nM

Problem: Look up and report measured EC50 for this entry: CC(C)Cc1nc(-c2nc(N)c3c(n2)NC(=O)C3(c2ccc(Cl)c(F)c2)C2CC2)cn2ccnc12 (stereo not shown) [Example 315A]
Solution: 119 nM

Problem: Indicate its recorded EC50; the compound in question is CC1(C)C(=O)Nc2nc(-c3cn4c(Br)cnc4c(CCC(F)(F)C(F)(F)F)n3)nc(N)c21 [Example 263]
Solution: 314 nM

Problem: Kindly indicate its recorded EC50. Item: CC1(c2ccc(F)cc2)C(=O)Nc2nc(-c3cn4c(Br)cnc4c(CCC(F)(F)F)n3)nc(N)c21 (stereo not shown) [Example 264A]
Solution: 239 nM

Problem: Name the recorded EC50 of the item CCOc1ccc(C2(C)C(=O)Nc3nc(-c4cn5ccnc5c(CCCC(F)(F)F)n4)nc(N)c32)nc1 (stereo not shown) [Example 216A] in your answer.
Solution: 146 nM

Problem: Provide measured EC50 value, entry: CC1(C)C(=O)Nc2nc(-c3cn4ccnc4c(Cc4ccccc4F)n3)nc(N)c21 [Example 70]
Solution: 21 nM

Problem: Please report the measured EC50 for CC1(c2ccc(C3CC3)nc2)C(=O)Nc2nc(-c3cn4ccnc4c(CCC(F)(F)C(F)(F)F)n3)nc(N)c21 (stereo not shown) [Example 240B]
Solution: 53 nM
